target-system: D328R Gαi1 subunit (rat, UniProt P10824 2-354, D328R)
Sequence (P10824 2-354 D328R): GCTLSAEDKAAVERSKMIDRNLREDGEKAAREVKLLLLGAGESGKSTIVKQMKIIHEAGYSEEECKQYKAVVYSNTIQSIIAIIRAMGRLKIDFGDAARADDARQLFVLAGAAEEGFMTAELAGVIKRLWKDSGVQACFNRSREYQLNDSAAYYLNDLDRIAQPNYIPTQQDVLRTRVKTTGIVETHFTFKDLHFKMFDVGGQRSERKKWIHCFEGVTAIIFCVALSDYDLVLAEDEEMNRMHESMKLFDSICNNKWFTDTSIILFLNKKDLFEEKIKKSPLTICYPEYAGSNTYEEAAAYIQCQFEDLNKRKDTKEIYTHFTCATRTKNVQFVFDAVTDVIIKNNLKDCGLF
experiment: SPR
Ends that are not written are not given here. * marks the point of attachment. Biotin = O=C1N[C@H]2[C@H](CS[C@H]2CCCCC(=O)*)N1
value-kind: pKd
One number for each entry, as −log10 of the molar value.

The reported pKd of the binder Biotin-SSRGYYHGIWVGEEGRLSR [peptide KB-1753] was 6.59
